Reported inhibition in vivo at 25 mg/kg values are given for each entry in this list.
- System: rat PCA response
- assayMethodText: Rat Passive Cutaneous Anaphylaxis (PCA) test
- Format: in vivo, rat (male Wistar serum donors; Wistar test rats)
- experimentalSetup: dose 25 mg/Kg, time 30 mins prior to challenge
Supply the numeric figure in %, leaving out any unit text.

Worked set:
compound: CCn1c2c(c(O)c([N+](=O)[O-])c1=O)CCCC2
value: 14
//
compound: CC1Cc2[nH]c(=O)c([N+](=O)[O-])c(O)c2C(C)C1 (stereo not shown)
value: 14
//
compound: CC(C)n1c2c(c(O)c([N+](=O)[O-])c1=O)CCCC2
value: 0

In plain terms, O=c1[nH]c2c(c(O)c1[N+](=O)[O-])CCCC2 has a documented inhibition in vivo at 25 mg/kg of 15

###

- Test system: rat PCA response
- assayMethodText: Rat Passive Cutaneous Anaphylaxis (PCA) test
- Format: in vivo, rat (male Wistar serum donors; Wistar test rats)
- experimentalSetup: dose 25 mg/Kg, time 30 mins prior to challenge
Reported inhibition in vivo at 25 mg/kg values are given for each entry in this list.

compound: CCn1c2c(c(O)c([N+](=O)[O-])c1=O)CCC(C)C2 (stereo not shown) [Example 11]
inhibition in vivo at 25 mg/kg: 38%

In plain terms, CC1CCc2c([nH]c(=O)c([N+](=O)[O-])c2O)C1 (stereo not shown) [Example 2] has a documented inhibition in vivo at 25 mg/kg of 49%

In plain terms, CCCn1c2c(c(O)c([N+](=O)[O-])c1=O)CCCC2 [Example 9] has a documented inhibition in vivo at 25 mg/kg of 25%

In plain terms, O=c1[nH]c2c(c(O)c1[N+](=O)[O-])CCC2 [Example 3] has a documented inhibition in vivo at 25 mg/kg of -20%

###

- Tested on: rat PCA response
- assayMethodText: Rat Passive Cutaneous Anaphylaxis (PCA) test
- Assay type: in vivo, rat (male Wistar serum donors; Wistar test rats)
- experimentalSetup: dose 100 mg/Kg, time 0 mins prior to challenge
// Criterion not met strictly below 10% in inhibition in vivo at 100 mg/kg; Criterion met otherwise

Prompt: Reported inhibition in vivo at 100 mg/kg at or above 10%? CCn1c2c(c(O)c([N+](=O)[O-])c1=O)CCCC2
Response: Criterion met

Prompt: Reported inhibition in vivo at 100 mg/kg at or above 10%? O=c1[nH]c2c(c(O)c1[N+](=O)[O-])CCC2
Response: Criterion met

Prompt: Reported inhibition in vivo at 100 mg/kg at or above 10%? CC1CCc2c([nH]c(=O)c([N+](=O)[O-])c2O)C1 (stereo not shown)
Response: Criterion met

Prompt: Reported inhibition in vivo at 100 mg/kg at or above 10%? O=c1[nH]c2c(c(O)c1[N+](=O)[O-])CCCCC2
Response: Criterion not met

###

- Test system: rat PCA response
- assayMethodText: Rat Passive Cutaneous Anaphylaxis (PCA) test
- Type: in vivo, rat (male Wistar serum donors; Wistar test rats)
- experimentalSetup: dose 100 mg/Kg, time 0 mins prior to challenge
readoutName: inhibition in vivo at 100 mg/kg (%)
Supply the numeric figure in %, leaving out any unit text.

molecule: O=c1[nH]c2c(c(O)c1[N+](=O)[O-])CCCC2
inhibition in vivo at 100 mg/kg / %: 70
--
molecule: CCn1c2c(c(O)c([N+](=O)[O-])c1=O)CCC(C)C2 (stereo not drawn)
inhibition in vivo at 100 mg/kg / %: 31

In plain terms, CC(C)n1c2c(c(O)c([N+](=O)[O-])c1=O)CCCC2 has a documented inhibition in vivo at 100 mg/kg of 8
